Biological target: Delta-type opioid receptor (Rattus norvegicus, UniProt P33533)
Sequence (P33533 whole entry): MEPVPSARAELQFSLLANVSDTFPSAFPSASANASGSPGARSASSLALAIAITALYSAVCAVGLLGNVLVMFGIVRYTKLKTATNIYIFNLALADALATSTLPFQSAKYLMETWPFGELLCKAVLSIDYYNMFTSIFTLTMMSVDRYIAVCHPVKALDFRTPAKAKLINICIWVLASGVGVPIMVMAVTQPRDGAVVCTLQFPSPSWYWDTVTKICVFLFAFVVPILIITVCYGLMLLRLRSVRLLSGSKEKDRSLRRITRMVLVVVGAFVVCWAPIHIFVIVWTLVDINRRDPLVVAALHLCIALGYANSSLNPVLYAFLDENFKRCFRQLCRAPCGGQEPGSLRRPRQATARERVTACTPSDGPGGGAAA
Assay: Binding affinity against Opioid receptor delta 1 using [3H]DT in rat brain synaptosomes was determined
pKi: −log10 of the molar value.
Give yes when the value for pKi is at least 10. Give no when it is less.

- COMPOUND: "CC(C)[C@H](NC(=O)[C@H](CC(=O)O)NC(=O)[C@H](Cc1ccccc1)NC(=O)[C@@H](C)NC(=O)[C@@H](N)Cc1ccc(O)cc1)C(=O)N[C@H](C(=O)NCC(N)=O)C(C)C [DELTORPHIN C]"
  MEASUREMENT_TARGET: "Delta-type opioid receptor (Rattus norvegicus, UniProt P33533)"
  CLASS_NAME: "yes"
- COMPOUND: "Cc1cccc(C)c1C[C@H](NC(=O)[C@H](C)NC(=O)[C@@H](N)Cc1ccc(O)cc1)C(=O)N[C@@H](CCC(=O)O)C(=O)N[C@H](C(=O)N[C@H](C(=O)NCC(N)=O)C(C)C)C(C)C"
  MEASUREMENT_TARGET: "Delta-type opioid receptor (Rattus norvegicus, UniProt P33533)"
  CLASS_NAME: "yes"
- COMPOUND: "Cc1cccc(C)c1C[C@@H](NC(=O)[C@@H](C)NC(=O)[C@@H](N)Cc1ccc(O)cc1)C(=O)N[C@@H](CCC(=O)O)C(=O)N[C@H](C(=O)N[C@H](C(=O)NCC(N)=O)C(C)C)C(C)C"
  MEASUREMENT_TARGET: "Delta-type opioid receptor (Rattus norvegicus, UniProt P33533)"
  CLASS_NAME: "no"

Decide: is the reported value of pKi for Cc1cccc(C)c1C[C@@H](NC(=O)[C@@H](C)NC(=O)[C@@H](N)Cc1ccc(O)cc1)C(=O)NCC(=O)N[C@@H](Cc1ccc(O)cc1)C(=O)N1CCC[C@H]1C(=O)N[C@@H](CO)C(N)=O equal to or greater than 10?
no

Can you handle Cc1cccc(C)c1C[C@H](NC(=O)[C@H](C)NC(=O)[C@@H](N)Cc1ccc(O)cc1)C(=O)NCC(=O)N[C@@H](Cc1ccc(O)cc1)C(=O)N1CCC[C@H]1C(=O)N[C@@H](CO)C(N)=O next?
no

====

Target: Mu-type opioid receptor (Cavia porcellus)
Sequence (P97266 whole entry): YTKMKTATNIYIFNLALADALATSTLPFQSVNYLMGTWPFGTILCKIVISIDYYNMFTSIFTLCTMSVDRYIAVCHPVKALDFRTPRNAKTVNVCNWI
Experiment: In vitro biological activity by electrically induced smooth muscle contractions in guinea pig ileum (Opioid receptor mu 1); inhibitory concentration was evaluated
For each entry below, report its pIC50 value.
One number for each entry, as −log10 of the molar value.

Worked set:
- MOLECULE: "Cc1cccc(C)c1C[C@H](NC(=O)[C@H](C)NC(=O)[C@@H](N)Cc1ccc(O)cc1)C(=O)NCC(=O)N[C@@H](Cc1ccc(O)cc1)C(=O)N1CCC[C@H]1C(=O)N[C@@H](CO)C(N)=O"
  MEASURED_PROPERTY: "pIC50"
  RESULT: 8.92
- MOLECULE: "Cc1cccc(C)c1C[C@@H](NC(=O)[C@@H](C)NC(=O)[C@@H](N)Cc1ccc(O)cc1)C(=O)NCC(=O)N[C@@H](Cc1ccc(O)cc1)C(=O)N1CCC[C@H]1C(=O)N[C@@H](CO)C(N)=O"
  MEASURED_PROPERTY: "pIC50"
  RESULT: 7.35
- MOLECULE: "Cc1cccc(C)c1C[C@H](NC(=O)[C@H](C)NC(=O)[C@@H](N)Cc1ccc(O)cc1)C(=O)N[C@@H](CCC(=O)O)C(=O)N[C@H](C(=O)N[C@H](C(=O)NCC(N)=O)C(C)C)C(C)C"
  MEASURED_PROPERTY: "pIC50"
  RESULT: 5.17
- MOLECULE: "CC(C)[C@H](NC(=O)[C@H](CC(=O)O)NC(=O)[C@H](Cc1ccccc1)NC(=O)[C@@H](C)NC(=O)[C@@H](N)Cc1ccc(O)cc1)C(=O)N[C@H](C(=O)NCC(N)=O)C(C)C [DELTORPHIN C]"
  MEASURED_PROPERTY: "pIC50"
  RESULT: 5.26

Below is a list of molecules. For each, state its recorded pIC50.
1. Cc1cccc(C)c1C[C@@H](NC(=O)[C@@H](C)NC(=O)[C@@H](N)Cc1ccc(O)cc1)C(=O)N[C@@H](CCC(=O)O)C(=O)N[C@H](C(=O)N[C@H](C(=O)NCC(N)=O)C(C)C)C(C)C
2. C[C@@H](NC(=O)[C@@H](N)Cc1ccc(O)cc1)C(=O)N[C@@H](Cc1ccccc1)C(=O)NCC(=O)N[C@@H](Cc1ccc(O)cc1)C(=O)N1CCC[C@H]1C(=O)N[C@@H](CO)C(N)=O [DERMORPHIN]

[5.09, 8.43]

====

Molecular target: Mu-type opioid receptor (Rattus norvegicus)
Sequence (P33535 whole entry): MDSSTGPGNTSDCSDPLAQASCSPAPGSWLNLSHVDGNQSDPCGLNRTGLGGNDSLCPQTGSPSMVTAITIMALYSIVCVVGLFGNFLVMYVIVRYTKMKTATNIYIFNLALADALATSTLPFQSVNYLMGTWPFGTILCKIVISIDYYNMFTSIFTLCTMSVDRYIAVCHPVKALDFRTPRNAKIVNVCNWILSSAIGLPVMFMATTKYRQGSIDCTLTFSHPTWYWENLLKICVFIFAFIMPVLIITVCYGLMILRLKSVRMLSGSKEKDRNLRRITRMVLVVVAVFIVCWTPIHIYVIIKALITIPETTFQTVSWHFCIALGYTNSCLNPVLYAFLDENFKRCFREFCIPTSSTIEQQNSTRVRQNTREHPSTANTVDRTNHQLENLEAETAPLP
Experiment: Binding affinity against Opioid receptor mu 1 using [3H]DAMGO in rat brain synaptosomes was determined
Would you mind telling me the reported Ki of each entry?
Answers are plain numbers, in nM.

- MOLECULE: "Cc1cccc(C)c1C[C@H](NC(=O)[C@H](C)NC(=O)[C@@H](N)Cc1ccc(O)cc1)C(=O)N[C@@H](CCC(=O)O)C(=O)N[C@H](C(=O)N[C@H](C(=O)NCC(N)=O)C(C)C)C(C)C"
  UNITS_TEXT: "nM"
  Ki: 1100
- MOLECULE: "CC(C)[C@H](NC(=O)[C@H](CC(=O)O)NC(=O)[C@H](Cc1ccccc1)NC(=O)[C@@H](C)NC(=O)[C@@H](N)Cc1ccc(O)cc1)C(=O)N[C@H](C(=O)NCC(N)=O)C(C)C [DELTORPHIN C]"
  UNITS_TEXT: "nM"
  Ki: 314
- MOLECULE: "Cc1cccc(C)c1C[C@@H](NC(=O)[C@@H](C)NC(=O)[C@@H](N)Cc1ccc(O)cc1)C(=O)N[C@@H](CCC(=O)O)C(=O)N[C@H](C(=O)N[C@H](C(=O)NCC(N)=O)C(C)C)C(C)C"
  UNITS_TEXT: "nM"
  Ki: 1960

Would you kindly share the measured Ki for C[C@@H](NC(=O)[C@@H](N)Cc1ccc(O)cc1)C(=O)N[C@@H](Cc1ccccc1)C(=O)NCC(=O)N[C@@H](Cc1ccc(O)cc1)C(=O)N1CCC[C@H]1C(=O)N[C@@H](CO)C(N)=O [DERMORPHIN] ?
0.092
